assay: 1-week stability tests (40° C./75% RH, 80° C., ambient light), XRPD and UPLC; assay type: physicochemical; details: 80° C.
Assay endpoint: 1-week stability test: change in purity (UPLC)

Compound	Reported result
C[C@@H]1CCc2ncc(F)cc2[C@H]2CCCN2c2ccn3ncc(c3n2)C(=O)N1.O=S(=O)(O)c1ccccc1 [Compound 1 besylate]	no change to purity
CS(=O)(=O)O.C[C@@H]1CCc2ncc(F)cc2[C@H]2CCCN2c2ccn3ncc(c3n2)C(=O)N1 [Compound 1 mesylate]	no change to purity
C[C@@H]1CCc2ncc(F)cc2[C@H]2CCCN2c2ccn3ncc(c3n2)C(=O)N1.O=C(O)CC(O)(CC(=O)O)C(=O)O [Compound 1 citrate]	no change to purity

###

test: 1-week stability tests (40° C./75% RH, 80° C., ambient light), XRPD and UPLC; type: physicochemical; details: ambient light test
Assay endpoint: Average purity after 1-week stability test (UPLC) (%)
Respond numerically; units are % and should not be typed.

## Input Reported Average purity after 1-week stability test (UPLC) for C[C@@H]1CCc2ncc(F)cc2[C@H]2CCCN2c2ccn3ncc(c3n2)C(=O)N1 [Compound 1] : what is it?
## Output 99.2

###

Measured IC50, listed per entry.
target: hERG (Homo sapiens); construct: Charles River Laboratories International, Inc. (ChanTest assay service); assay: hERG ChanTest Fast Patch assay
Sequence (Q12809 whole entry): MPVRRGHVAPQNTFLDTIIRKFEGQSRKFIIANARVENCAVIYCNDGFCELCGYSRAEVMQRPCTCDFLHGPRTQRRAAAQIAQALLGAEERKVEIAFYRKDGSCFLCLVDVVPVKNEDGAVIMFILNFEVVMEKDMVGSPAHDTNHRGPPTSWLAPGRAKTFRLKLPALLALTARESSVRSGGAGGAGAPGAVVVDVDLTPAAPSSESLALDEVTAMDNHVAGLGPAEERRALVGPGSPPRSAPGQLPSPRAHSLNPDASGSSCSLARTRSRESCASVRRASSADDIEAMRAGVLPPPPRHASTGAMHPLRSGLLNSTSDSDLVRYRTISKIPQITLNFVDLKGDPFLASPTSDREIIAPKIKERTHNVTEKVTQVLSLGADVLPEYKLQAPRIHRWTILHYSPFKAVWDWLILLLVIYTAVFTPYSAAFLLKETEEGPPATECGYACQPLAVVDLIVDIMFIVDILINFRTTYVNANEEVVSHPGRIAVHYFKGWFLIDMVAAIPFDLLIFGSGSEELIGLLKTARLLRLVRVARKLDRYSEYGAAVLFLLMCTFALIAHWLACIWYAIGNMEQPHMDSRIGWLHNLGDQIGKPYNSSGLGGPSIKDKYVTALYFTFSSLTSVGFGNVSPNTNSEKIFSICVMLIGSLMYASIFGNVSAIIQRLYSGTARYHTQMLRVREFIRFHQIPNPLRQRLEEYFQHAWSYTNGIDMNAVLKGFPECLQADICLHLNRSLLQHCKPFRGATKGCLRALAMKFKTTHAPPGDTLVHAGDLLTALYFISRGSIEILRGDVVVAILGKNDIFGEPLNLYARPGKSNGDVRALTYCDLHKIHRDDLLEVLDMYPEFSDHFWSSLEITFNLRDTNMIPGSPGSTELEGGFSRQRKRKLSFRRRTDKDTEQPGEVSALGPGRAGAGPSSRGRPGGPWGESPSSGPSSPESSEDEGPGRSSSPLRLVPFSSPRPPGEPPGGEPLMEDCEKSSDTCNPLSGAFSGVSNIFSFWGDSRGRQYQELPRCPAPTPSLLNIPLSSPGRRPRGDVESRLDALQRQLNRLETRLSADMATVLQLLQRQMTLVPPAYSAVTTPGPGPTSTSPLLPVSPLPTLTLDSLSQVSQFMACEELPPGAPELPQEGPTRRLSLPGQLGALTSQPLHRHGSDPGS
Respond numerically; units are µM and should not be typed.

Item smiles	Assay endpoint	Reported result
C[C@H]1CCc2ncc(F)cc2[C@H]2CCCN2c2ccn3ncc(c3n2)C(=O)N1	IC50	9

## Input Reported IC50 for `C[C@@H]1CCc2ncc(F)cc2[C@H]2CCCN2c2ccn3ncc(c3n2)C(=O)N1` : what is it?
## Output 27

###

assay: 1-week stability tests (40° C./75% RH, 80° C., ambient light), XRPD and UPLC; format: physicochemical; conditions: ambient light
Assay endpoint: 1-week stability test: change in purity (UPLC)

Compound	Reported result
CS(=O)(=O)O.C[C@@H]1CCc2ncc(F)cc2[C@H]2CCCN2c2ccn3ncc(c3n2)C(=O)N1 [Compound 1 mesylate]	no change to purity
C[C@@H]1CCc2ncc(F)cc2[C@H]2CCCN2c2ccn3ncc(c3n2)C(=O)N1.O=S(=O)(O)c1ccccc1 [Compound 1 besylate]	no change to purity
C[C@@H]1CCc2ncc(F)cc2[C@H]2CCCN2c2ccn3ncc(c3n2)C(=O)N1.O=C(O)CC(O)(CC(=O)O)C(=O)O [Compound 1 citrate]	no change to purity

###

assay: Approximate solvent solubility of amorphous Compound 1 free base by solvent addition (Example 1); type: physicochemical; conditions: 1-butanol, organic solvent or mixture, thermodynamic from solid; read-out: Approx. Solubility
Assay endpoint: solubility (mg/mL)
Respond numerically; units are mg/mL and should not be typed.

## Input Reported solubility for C[C@@H]1CCc2ncc(F)cc2[C@H]2CCCN2c2ccn3ncc(c3n2)C(=O)N1 [Compound 1] : what is it?
## Output 17

###

experiment: Approximate solvent solubility of amorphous Compound 1 free base by solvent addition (Example 1); type: physicochemical; conditions: 1,2-Dimethoxyethane, organic solvent or mixture, thermodynamic from solid; read-out: Approx. Solubility
Assay endpoint: solubility (µg/mL)
Respond numerically; units are µg/mL and should not be typed.

## Input Reported solubility for `C[C@@H]1CCc2ncc(F)cc2[C@H]2CCCN2c2ccn3ncc(c3n2)C(=O)N1` : what is it?
## Output 8300

###

test: Dynamic vapor sorption (DVS); assay type: physicochemical; conditions: at 90% RH

Compound	Hygroscopicity, mass uptake by DVS
C[C@@H]1CCc2ncc(F)cc2[C@H]2CCCN2c2ccn3ncc(c3n2)C(=O)N1 [Compound 1]	about 0.7%
C[C@@H]1CCc2ncc(F)cc2[C@H]2CCCN2c2ccn3ncc(c3n2)C(=O)N1.O=S(=O)(O)c1ccccc1 [Compound 1 besylate]	about 0.7%
C[C@@H]1CCc2ncc(F)cc2[C@H]2CCCN2c2ccn3ncc(c3n2)C(=O)N1 [Form I]	about 0.7%
